Provide the reported pIC50 of each item.
- System: CAPAN-1
- procedure.text: Antiproliferative activity against KRAS-dependent human Capan1 cells after 48 hrs by CCK8 assay
- experimental.setup: CAPAN-1, 48 h
pIC50: −log10 of the molar value.

Task: GET /values?readout=pIC50&item= O=C1c2ccccc2NC(c2ccccc2F)N1CCOc1ccc(-c2nc3ccccc3n2Cc2ccncc2)cc1 (centres undefined)
Result: < 4.00

Task: GET /values?readout=pIC50&item= O=C1c2ccccc2NC(c2ccccn2)N1c1ccc(OCCn2ccnc2)cc1 (centres undefined)
Result: < 4.00

Task: GET /values?readout=pIC50&item= O=C1c2cc(Cl)ccc2NC(c2ccccc2F)N1CCOc1ccc(-c2nc3ccccc3n2Cc2ccncc2)cc1 (centres undefined)
Result: < 4.00

Task: GET /values?readout=pIC50&item= Cc1nccn1CCOc1ccc(N2C(=O)c3ccccc3NC2c2ccccc2F)cc1 (centres undefined)
Result: < 4.00

Task: GET /values?readout=pIC50&item= O=C1c2cc(F)ccc2NC(c2ccccc2F)N1CCOc1ccc(-c2nc3ccccc3n2Cc2ccncc2)cc1 (centres undefined)
Result: < 4.00

Task: GET /values?readout=pIC50&item= O=C1c2ccccc2NC(c2ccccc2F)N1c1ccc(OCCn2ccnc2-c2ccccc2)cc1 (centres undefined)
Result: < 4.00

Task: GET /values?readout=pIC50&item= Cc1nc2ccccc2n1CCOc1ccc(N2C(=O)c3ccccc3NC2c2ccccc2F)cc1 (centres undefined)
Result: < 4.00

Task: GET /values?readout=pIC50&item= Cc1nccn1CCOc1ccc(N2C(=O)c3ccccc3NC2c2ccccn2)cc1 (centres undefined)
Result: < 4.00

Task: GET /values?readout=pIC50&item= O=C1c2ccccc2NC(c2ccccc2F)N1c1ccc(OCCn2c(-c3ccccc3)nc3ccccc32)cc1 (centres undefined)
Result: < 4.00

###

- Tested on: CAPAN-1
- procedure.text: Antiproliferative activity against KRAS-dependent human Capan1 cells after 48 hrs by CCK8 assay
- experimental.setup: CAPAN-1, 48 h
property.measured: IC50 (µM)
Give the value in µM but do not write µM after it.

Task: GET /values?readout=IC50&item= COc1ccc2c(c1)NC(c1ccccc1F)N(C1CCN(CCCn3ccnc3-c3ccccc3)CC1)C2=O (stereo not given)
Result: 82

Task: GET /values?readout=IC50&item= O=C1c2ccc(F)cc2NC(c2ccccc2F)N1C1CCN(CCCn2ccnc2-c2ccccc2)CC1 (stereo not given)
Result: 35

###

- Test system: CAPAN-1
- procedure.text: Antiproliferative activity against KRAS-dependent human Capan1 cells after 48 hrs by CCK8 assay
- experimental.setup: CAPAN-1, 48 h
pIC50: −log10 of the molar value.
property.measured: pIC50

Task: GET /values?readout=pIC50&item= O=C1c2ccccc2NC(c2ccccc2F)N1c1ccc(OCCn2ccnc2)cc1 (stereo not drawn)
Result: < 4.00

Task: GET /values?readout=pIC50&item= O=C1c2ccc(F)cc2NC(c2ccccc2F)N1CCOc1ccc(-c2nc3ccccc3n2Cc2ccncc2)cc1 (stereo not drawn)
Result: < 4.00

Task: GET /values?readout=pIC50&item= O=C1c2ccccc2NC(c2ccccn2)N1c1ccc(OCCn2c(-c3ccccc3)nc3ccccc32)cc1 (stereo not drawn)
Result: < 4.00
